Assay Target: T1, Recombinant human MASP1 enzyme (fragment corresponding to amino acids 297-699, C-terminal His Tag) (human, UniProt P48740 297-699)
T1 sequence: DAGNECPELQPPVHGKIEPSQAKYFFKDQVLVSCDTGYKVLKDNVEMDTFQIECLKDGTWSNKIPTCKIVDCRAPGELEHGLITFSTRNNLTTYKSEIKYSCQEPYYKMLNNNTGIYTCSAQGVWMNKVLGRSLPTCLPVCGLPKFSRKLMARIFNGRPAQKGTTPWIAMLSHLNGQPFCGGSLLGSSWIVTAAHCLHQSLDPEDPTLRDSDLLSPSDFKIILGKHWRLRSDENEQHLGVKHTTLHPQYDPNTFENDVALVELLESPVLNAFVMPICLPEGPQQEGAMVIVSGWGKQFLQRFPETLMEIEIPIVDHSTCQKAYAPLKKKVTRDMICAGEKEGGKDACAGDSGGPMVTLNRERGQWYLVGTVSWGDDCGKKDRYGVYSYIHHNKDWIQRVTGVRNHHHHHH
Measurement Description: cell-based or functional assay
Bridge positions count the residues as written; N and C are the ends. Square brackets hold non-standard residues; d marks the D form. Ends that are not written are not given here. Oic = O=C(O)[C@@H]1C[C@@H]2CCCC[C@@H]2N1; Gly(cBu) = N[C@H](C(=O)O)C1CCC1; Pen = CC(C)(S)[C@H](N)C(=O)O; NMeA = CN[C@@H](C)C(=O)O
Test Readout: human MASP1 IC50 (nM)
Give bare numbers, in nM.

[NMeA]ICSRSLP[Oic]I[Pen]IPD-OH (disulfide 3-11; N-terminus assumed; SMILES CC[C@H](C)[C@H](NC(=O)[C@H](C)NC)C(=O)N[C@H]1CSSC(C)(C)[C@@H](C(=O)N[C@H](C(=O)N2CCC[C@H]2C(=O)N[C@@H](CC(=O)O)C(=O)O)[C@@H](C)CC)NC(=O)[C@H]([C@@H](C)CC)NC(=O)[C@@H]2C[C@@H]3CCCC[C@@H]3N2C(=O)[C@@H]2CCCN2C(=O)[C@H](CC(C)C)NC(=O)[C@H](CO)NC(=O)[C@H](CCCNC(=N)N)NC(=O)[C@H](CO)NC1=O) [((N-Me)A)-IC+SRSLP-(Oic)-I-(Pen)+IPD-OH]
3.9

Then there is this binder:
Entry under review: AICSRSLPPIC[Gly(cBu)]PD-NH2 (disulfide 3-11; N-terminus assumed; SMILES CC[C@H](C)[C@H](NC(=O)[C@H](C)N)C(=O)N[C@H]1CSSC[C@@H](C(=O)N[C@H](C(=O)N2CCC[C@H]2C(=O)N[C@@H](CC(=O)O)C(N)=O)C2CCC2)NC(=O)[C@H]([C@@H](C)CC)NC(=O)[C@@H]2CCCN2C(=O)[C@@H]2CCCN2C(=O)[C@H](CC(C)C)NC(=O)[C@H](CO)NC(=O)[C@H](CCCNC(=N)N)NC(=O)[C@H](CO)NC1=O) [AIC+SRSLPPIC+(Cbg)-PD-NH2] . Reported human MASP1 IC50?
6.5
